# system-name: human TLR7 (Homo sapiens)
# Sequence (Q9NYK1 27-1049): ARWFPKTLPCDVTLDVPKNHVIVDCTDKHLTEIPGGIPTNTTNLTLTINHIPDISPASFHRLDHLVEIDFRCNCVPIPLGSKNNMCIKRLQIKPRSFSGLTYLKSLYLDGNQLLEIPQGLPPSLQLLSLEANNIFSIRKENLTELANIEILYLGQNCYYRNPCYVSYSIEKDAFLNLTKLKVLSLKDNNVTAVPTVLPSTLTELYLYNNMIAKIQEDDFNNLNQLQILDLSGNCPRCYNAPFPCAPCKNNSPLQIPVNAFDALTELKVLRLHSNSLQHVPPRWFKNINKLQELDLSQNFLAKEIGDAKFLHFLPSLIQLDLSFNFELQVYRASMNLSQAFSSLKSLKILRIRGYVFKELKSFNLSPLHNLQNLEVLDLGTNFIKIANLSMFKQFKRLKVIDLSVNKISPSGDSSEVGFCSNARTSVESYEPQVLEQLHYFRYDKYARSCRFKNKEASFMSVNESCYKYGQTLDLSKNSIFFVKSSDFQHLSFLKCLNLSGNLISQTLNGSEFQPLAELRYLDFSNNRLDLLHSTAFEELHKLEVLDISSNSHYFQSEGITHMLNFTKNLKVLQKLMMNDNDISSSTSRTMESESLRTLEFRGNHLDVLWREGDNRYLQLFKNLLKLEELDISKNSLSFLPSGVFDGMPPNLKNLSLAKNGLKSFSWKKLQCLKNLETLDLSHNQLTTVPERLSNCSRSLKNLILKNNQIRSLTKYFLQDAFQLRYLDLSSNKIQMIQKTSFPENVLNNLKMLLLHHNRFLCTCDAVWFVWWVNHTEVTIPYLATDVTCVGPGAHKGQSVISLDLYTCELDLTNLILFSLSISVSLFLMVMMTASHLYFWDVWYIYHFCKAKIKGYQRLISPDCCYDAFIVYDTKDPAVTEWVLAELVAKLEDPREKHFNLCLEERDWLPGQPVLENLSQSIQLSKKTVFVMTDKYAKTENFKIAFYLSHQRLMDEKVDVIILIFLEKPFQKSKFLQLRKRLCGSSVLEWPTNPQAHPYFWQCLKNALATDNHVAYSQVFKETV
# assay-procedure: TLR7 inhibition reporter assay (HEK-Blue cells, SEAP reporter, gardiquimod stimulation)
# assay-context: HEK-Blue cells overexpressing human TLR7, SEAP reporter, gardiquimod 7.5 μM
pIC50: −log10 of the molar value.

# compound, pIC50
rows = [
    ("CNCCN1CCC(c2ccc3[nH]c(-c4ccnc5[nH]ncc45)c(C(C)C)c3c2)C(F)C1 (centres unmarked) [Example 677]", "> 7.00"),
    ("CC(C)c1c(-c2ccc3nccn3c2)[nH]c2ccc(C3CCN(CC(=O)N(C)C)CC3)cc12 [Example 444]", "> 7.00"),
    ("CC(C)c1c(-c2ccc3[nH]c(=O)oc3c2)[nH]c2ccc(C3CCNCC3)cc12 [Example 10]", "> 7.00"),
    ("CCc1c(-c2ccnc3[nH]ncc23)[nH]c2ccc(C3CCN(CCNC)CC3)cc12 [Example 654]", "> 7.00"),
    ("CC(C)c1c(-c2ccn3cnnc3c2)[nH]c2ccc(C3CCN(CC(=O)N(C)C)CC3)cc12 [Example 305]", "6.00 to 7.00"),
    ("CC(C)c1c(-c2c[nH]c3ccncc23)[nH]c2ccc(C3CCNCC3)cc12 [Example 14]", "< 5.51"),
    ("CNCCN1CCC(c2ccc3[nH]c(-c4cncc5ccccc45)c(C)c3c2)CC1 [Example 665]", "< 4.30"),
    ("CNC(=O)CN1CCC(c2ccc3[nH]c(-c4cc(C)c5c(cnn5C)c4)c(C(C)C)c3c2)CC1 [Example 364]", "6.00 to 7.00"),
]
